System: E18 rat cortical neuron-glia co-culture
experimentalDetails: myelination (MBP fiber length per Olig2+ nucleus), % of 1 µM DAPT response (DMSO = 0) (% of DAPT); higher = more myelination, active = 50 or more
conditionContext: 5 µM; treatment time: 8 days (DIV5-DIV13)
Binning scheme for myelination: lowest = under -10, middle = from -10 up to 3, highest = 3 and over

These recorded examples may help you get a feel for the data.
compound	cat
CCOC(=O)[C@H](CCc1ccccc1)N[C@H]1CCc2ccccc2N(CC(=O)O)C1=O [Benazepril]	middle
CCc1c(C)[nH]c2c1C(=O)C(CN1CCOCC1)CC2 (configuration not stated) [Molindone]	lowest
CC(C)NCC(O)COc1ccc(CCOCC2CC2)cc1 (configuration not stated) [Betaxolol]	lowest

Prompt: Determine which band this compound sits in: CC1=C(CC(=O)O)c2cc(F)ccc2/C1=C\c1ccc([S+](C)[O-])cc1 (configuration not stated) [Sulindac]
Completion: lowest

Prompt: State the class of the compound shown: Nc1ncn([C@@H]2O[C@H](CO)[C@@H](O)[C@H]2O)c(=O)n1 [Azacitidine]
Completion: highest

----------
Test system: E18 rat cortical neuron-glia co-culture
experimentalDetails: myelination (MBP fiber length per Olig2+ nucleus), % of 1 µM DAPT response (DMSO = 0) (% of DAPT); higher = more myelination, active = 50 or more
conditionContext: 1 µM; treatment time: 8 days (DIV5-DIV13)
Hi there, I'd appreciate the recorded myelination for every entry that follows.
Give bare numbers.

Use the examples below as a reference point.
molecule	measuredAttribute	numericResult
CC(=O)OCC[N+](C)(C)C	myelination	-17.4
CCCCC(=O)N(Cc1ccc(-c2ccccc2-c2nnn[nH]2)cc1)[C@H](C(=O)O)C(C)C	myelination	-7.17
O=c1[nH]cnc2c1ncn2[C@H]1CC[C@@H](CO)O1	myelination	-2.19
C[C@@H]1C[C@H]2[C@@H]3CCC4=CC(=O)C=C[C@]4(C)[C@@]3(F)[C@@H](O)C[C@]2(C)[C@@]1(O)C(=O)CO	myelination	-1.63
Nc1nc(Cl)nc2c1ncn2[C@@H]1O[C@H](CO)[C@@H](O)[C@H]1O	myelination	-12.4

Provide each entry's myelination from the list below.
1. CC(Oc1c(Cl)cccc1Cl)C1=NCCN1 (centres undefined)
2. O=C1Nc2ccccc2/C1=C1/Nc2ccccc2C1=O
3. CCCc1nc2c(C)cc(-c3nc4ccccc4n3C)cc2n1Cc1ccc(-c2ccccc2C(=O)O)cc1
4. NC12CC3CC(CC(C3)C1)C2

Completion:
-15.8
-4.48
-7.37
-4.46

For every item below, please supply its myelination.
1. CC(=O)CC(c1ccccc1)c1c(O)c2ccccc2oc1=O (centres undefined)
2. Cc1nc2ccccn2c(=O)c1CCN1CCC(C(=O)c2ccc(F)cc2)CC1

Completion:
[-6.64, -7.44]

For every item below, please supply its myelination.
1. C=C1/C(=C\C=C2/CCC[C@]3(C)[C@@H]([C@H](C)CCCC(C)(C)O)CC[C@@H]23)C[C@@H](O)C[C@@H]1O
2. CNC(=C[N+](=O)[O-])NCCSCc1ccc(CN(C)C)o1

Completion:
-11.1
-19.6

Please give myelination, item by item, for the list that follows.
1. Nc1c2c(nc3c1CCC3)CCCC2
2. NC1CCN(c2nc3c(cc2F)c(=O)c(C(=O)O)cn3-c2ccc(F)cc2F)C1 (centres undefined)
3. OC(CCN1CCCC1)(c1ccccc1)C1CCCCC1 (centres undefined)
4. CN(C)CCc1c[nH]c2ccc(C[C@H]3COC(=O)N3)cc12
5. CCOC(=O)[C@H](CCc1ccccc1)N[C@H]1CCc2ccccc2N(CC(=O)O)C1=O
6. Brc1c(NC2=NCCN2)ccc2nccnc12

Completion:
-26.8
-12.3
-4.99
-9.2
-15.3
-13.9
